binders and their reported IC50, neutralizing activity (hMPV infection of LLC-MK2 cells)
# TEST_TARGET: F protein of human metapneumovirus strain JPS05-21 (type B2), on infectious virus (human metapneumovirus, strain JPS05-21 …)
# PROTOCOL_NOTES: cell-based or functional assay
Express the result in µg/mL but write the number alone.

1) EV046150 (antibody, human IgG1, kappa, V domains shown) VH: RVQLVQSGAEVKKPGSSVRVSCKASGGTFSNYSISWVRQVPGQGLEWMGRIIPILPLSSYPQQFQGRVAITADKSSTTAYMELSSLRIEDTAIYYCARDALRPEGGYYYYYFDVWGTGTTVTVSS VL: EIELTQSPGTLSLSPGERATLSCRANQIIGDTSLAWYQQKPGQAPRLLIFGASSRATGIPDRFSGSGFGSDFTLTITSLEPEDFAVYYCQQYGSSPTFGQGTKVEIKR	0.18

Next, consider the following binder.
# get_value(readout='IC50, neutralizing activity (hMPV infection of LLC-MK2 cells)', item= EV046130 (antibody, human IgG1, lambda, V domains shown) VH: QVQLVESGGGVAQPGRSLRLSCAASGFTLSNYGMHWVRQAPGKGLEWVAVIWYDGRNKYYADSVKGRFTISRDDFKNTLDLQMNSLRAEDTAVYYCARDQHAGITMIEDWGQGTLVTVSS VL: QSALTQPPSASGSPGQSVTISCTGTSSDVGYFKYVSWYQQHPGKAPKLLIYEVSKRPSGVPDRFSGSRSGNTASLTVSGLQADDEADYYCGSYAGNNNIIFGGGTKLTVLG )
0.089
